molecular target: Zinc finger protein mex-5 (Caenorhabditis elegans); assay: MEX-5 RNA-binding inhibition confirmation – biochemical, C. elegans, fluorescence polarization, dose retest (AID 449745); conditions: Mex-5 / TCR-2 RNA binding;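 note: potency is for blocking Mex-5 binding to labeled TCR2 RNA like unlabeled competitor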
Records with an inconclusive call do not appear. The source made the active and inactive calls. The rule behind the calls is not given here.
Reported AC50 is given for each of the following compounds.

Oc1ccc(N=Nc2nccs2)c(O)c1
38.3 µM

Note to self: AC50 recorded for Cc1ccc(O)c(C(=O)c2cc(C#N)c(=O)n(-c3nccs3)c2)c1 was 14.2 µM

Note to self: AC50 recorded for O=c1[nH]c(-[n+]2ccccc2)c(/C=N/NC([S-])=Nc2ccccc2)s1 was 15.1 µM

Note to self: AC50 recorded for CN1C(=O)/C(=C/c2cn(CC(=O)N3CCCCC3)c3ccccc23)c2ccccc21 was > 38 µM (inactive)

Note to self: AC50 recorded for CN(N=Nc1ccc([N+](=O)[O-])cc1)c1ccccc1 was 9.51 µM

Note to self: AC50 recorded for C=C1c2cccc(O)c2C(O)=C2C(=O)[C@]3(O)C(O)=C(C(N)=O)C(=O)[C@@H](N(C)C)[C@@H]3[C@@H](O)[C@H]12 was 17.7 µM

Note to self: AC50 recorded for NS(=O)(=O)c1ccc(N=Nc2c(=O)[nH]n3c(=O)c4c([nH]c23)CCCC4)cc1 was < 0.3 µM

====

target: Zinc finger protein mex-5 (Caenorhabditis elegans); test: MEX-5 RNA-binding inhibition confirmation – biochemical, C. elegans, fluorescence polarization, dose retest (AID 449745); conditions: Mex-5 / TCR-2 RNA binding;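 note: potency is for blocking Mex-5 binding to labeled TCR2 RNA like unlabeled competitor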
Inconclusive results are not listed. The source made the active and inactive calls. How the calls were made is not given here.
Outcome (select one): active, inactive

Worked examples, 6 molecules total:
O=C(N/N=C/C1C(=O)NC(=S)N(c2ccccc2)C1=O)c1cc(Br)c(O)c(Br)c1 (configuration not stated)
active
CCOC(=O)c1c(NS(=O)(=O)c2ccccc2)n(CCCOC)c2nc3ccccc3nc12
inactive
CCOc1ccc2nc(N3CCCN(C(=O)Nc4ccccc4C)CC3)c(C#N)cc2c1
active
COc1cccc(N=Nc2c(N)[nH][nH]c2=O)c1
active
Cc1cc2n(n1)C(c1c[nH]c3ccccc13)Nc1ccccc1-2 (configuration not stated)
inactive
COc1cc(OC)c(OC)cc1/C=C1/Cc2ccccc2C1=O
active

Write down the call the test reported for this molecule. Item: CCOc1ccc(/C=C/C(=O)c2c(O)c3ccccc3oc2=O)cc1
inactive

Write down the call the test reported for this molecule. Item: COc1ccc(/C=C/C(=O)N/C(=C\c2ccco2)C(=O)NCCc2nc3ccccc3[nH]2)cc1
inactive

Write down the call the test reported for this molecule. Item: O=[N+]([O-])c1ccc(O)c(C=Nc2ccc3c(c2)OCCO3)c1
inactive

Write down the call the test reported for this molecule. Item: O=C1C(Cl)=C(NC(=O)c2ccccc2)C(=O)C(Cl)=C1NC(=O)c1ccccc1
active

Write down the call the test reported for this molecule. Item: O=C1NC(=O)/C(=C\c2ccc(O)cc2O)S1
active

Write down the call the test reported for this molecule. Item: COc1cccc(/C(O)=C/c2nc3ccc(C(=O)NCCc4ccc(Cl)cc4)cc3[nH]c2=O)c1
active

Write down the call the test reported for this molecule. Item: CCc1cc(-c2n[nH]c(CCC(=O)O)c2-c2nc3ccccc3n2C)c(O)cc1O
active

====

molecular target: Zinc finger protein mex-5 (Caenorhabditis elegans); test: MEX-5 RNA-binding inhibition confirmation – biochemical, C. elegans, fluorescence polarization, dose retest (AID 449745); conditions: Mex-5 / TCR-2 RNA binding;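 note: potency is for blocking Mex-5 binding to labeled TCR2 RNA like unlabeled competitor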
Results filed as inconclusive are left out. Calls of active or inactive are those of the source. No rule for the calls is given here.
Outcome (select one): active, inactive

Worked examples, 2 compounds total:
COC(=O)CCC(=O)OC1(C)C(=O)C2=CN(Cc3ccco3)C(c3ccc(OC)cc3)=CC2=C(Br)C1=O (stereo not given)
active
O=c1cc2c(=O)oc3cc(O)c(O)oc3c2c(O)c1O
active

Write down the call the test reported for this compound. Item: Cn1ncc2c(NNC(=O)c3ccc(Cl)cc3Cl)ncnc21
active

Write down the call the test reported for this compound. Item: COc1ccc(C(=O)C/C(=C\C(=O)c2ccc(C)cc2)c2ccccc2)cc1
inactive

Write down the call the test reported for this compound. Item: O=C(Cc1c(O)c2ccccc2oc1=O)c1ccc(C(F)(F)F)cc1
active
